Target: full length NS3/4a (Hepatitis C virus genotype 1b (isolate BK) (HCV), UniProt P26663)
Sequence (P26663 1027-1657): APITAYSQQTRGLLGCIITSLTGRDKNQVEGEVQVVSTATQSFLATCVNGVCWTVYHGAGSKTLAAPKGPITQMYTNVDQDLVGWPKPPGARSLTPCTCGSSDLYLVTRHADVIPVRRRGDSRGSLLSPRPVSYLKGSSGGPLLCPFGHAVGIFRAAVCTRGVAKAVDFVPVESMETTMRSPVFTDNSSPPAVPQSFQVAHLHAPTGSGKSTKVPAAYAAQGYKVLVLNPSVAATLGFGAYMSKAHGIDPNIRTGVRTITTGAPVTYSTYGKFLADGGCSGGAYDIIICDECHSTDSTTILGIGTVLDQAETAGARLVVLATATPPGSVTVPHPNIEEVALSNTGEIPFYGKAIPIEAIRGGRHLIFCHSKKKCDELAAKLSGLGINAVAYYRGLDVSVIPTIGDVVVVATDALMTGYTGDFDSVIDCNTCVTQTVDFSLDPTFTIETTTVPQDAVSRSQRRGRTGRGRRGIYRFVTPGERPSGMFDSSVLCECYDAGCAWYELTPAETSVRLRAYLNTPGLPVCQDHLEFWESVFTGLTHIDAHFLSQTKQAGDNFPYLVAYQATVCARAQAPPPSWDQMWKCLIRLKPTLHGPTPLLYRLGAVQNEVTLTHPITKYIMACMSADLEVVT
Experiment: NS3 Protease Assay (Example A), FRET-based
Type: biochemical
Settings: @ 3 uM
We begin with a simple list: items and their reported inhibition at 3 µM.
MEASURED_ATTRIBUTE: inhibition at 3 µM (%)

# MOLECULE, OBSERVED_RESULT
rows = [
    ("CC[C@H](NC(=O)C1CCNC1)c1ccc(Cl)c(C(=O)c2cccnc2)c1F (some centres unmarked)", 38),
    ("C[C@H](CC(N)=O)N[C@@H](c1ccc(Cl)c(C(=O)c2cccnc2)c1F)C1CC1", 41),
    ("CC[C@@H](N)c1ccc(Cl)c(C(=O)c2cnc(SC)nc2)c1F", 44),
    ("CC[C@@H](N)c1ccc(Cl)c(C(=O)c2ccc(N)cn2)c1F", 55),
    ("CC[C@@H](N[C@@H](C)C(N)=O)c1ccc(Cl)c(C(=O)c2cccnc2)c1F", 55),
    ("CC[C@@H](NC(=O)C1=CCNC1)c1ccc(Cl)c(C(=O)c2cccnc2)c1F", 51),
    ("CC(C)C[C@@H](N[C@H](C)CC(N)=O)c1ccc(Cl)c(C(=O)c2ccc(N)nc2)c1F", 43),
    ("CC[C@@H](N)c1ccc(Cl)c(C(=O)c2ccc(C#N)nc2)c1F", 55),
]

----------
Molecular target: full length NS3/4a (Hepatitis C virus genotype 1b (isolate BK) (HCV), UniProt P26663)
Experiment: NS3 Protease Assay (Example A), FRET-based
Assay type: biochemical
Settings: HCV NS3 protease assay, full length NS3/4a; read-out: Assay A IC50 (μM) average
MEASURED_ATTRIBUTE: log10 of IC50 (log10 of the value in µM)

# MOLECULE, log10 of IC50
records = [
    ("CC[C@H](NCCO)c1ccc(Cl)c(C(=O)c2ccc(N)nc2)c1F [Example 173]", -0.89),
    ("Nc1ccc(C(=O)c2c(Cl)ccc([C@H](N)C3CC3)c2F)nc1 [Example 61]", 0.08),
    ("C[C@@H](CC(N)=O)N[C@@H](c1ccc(Cl)c(C(=O)c2ccc(CO)cc2)c1F)C1CC1 [Example 263]", -0.96),
    ("C[C@H](CC(N)=O)N[C@H](CC1CC1)c1ccc(Cl)c(C(=O)c2ccc(N)nc2)c1F [Example 279]", -0.41),
    ("CCC[C@@H](N)c1ccc(Cl)c(C(=O)c2ccc(N)nc2)c1F [Example 66]", -0.70),
    ("CC[C@@H](NCCC(N)=O)c1ccc(Cl)c(C(=O)c2ccc(N)nc2)c1F [Example 180]", -0.85),
    ("CC[C@@H](NCCO)c1ccc(Cl)c(C(=O)c2ccccc2)c1F [Example 176]", -0.54),
    ("CC[C@@H](N[C@H](C)CC(N)=O)c1ccc(Cl)c(C(=O)c2ccc(-n3cc(CO)cn3)nc2)c1F [Example 160]", 0.62),
]

----------
Biological target: full length NS3/4a (Hepatitis C virus genotype 1b (isolate BK) (HCV), UniProt P26663)
Experiment: NS3 Protease Assay (Example A), FRET-based
Format: biochemical
Conditions: read-out: IC50 against the protease activity of the full length NS3/4a
Protocol: The HCV NS3 protease functions have been extensively studied and are considered as potential targets for antiviral therapy: see for example the many references listed in the introductory section of this application. Therefore, the activity of the compounds of the invention as anti-HCV agents was assessed using a full length HCV NS3 protease. […]
pIC50: −log10 of the molar value.
Each item that follows carries a reported pIC50.

# COMPOUND, pIC50
records = [
    ("CC[C@@H](N[C@H](C)CC(N)=O)c1ccc(Cl)c(C(=O)c2cccc(O)c2)c1F [Example 228]", "> 6.00"),
    ("CC[C@@H](NCCC(N)=O)c1ccc(Cl)c(C(=O)c2cccnc2)c1F [Example 162]", "> 6.00"),
    ("CC[C@@H](NC)c1ccc(Cl)c(C(=O)c2ccc(N)nc2)c1F [Example 307]", "> 6.00"),
    ("CC[C@H](NCCO)c1ccc(Cl)c(C(=O)c2ccccc2)c1F [Example 171]", "> 6.00"),
    ("CC[C@@H](N)c1ccc(Cl)c(C(=O)c2cnc(NC)cn2)c1F [Example 57]", "5.30 to 6.00"),
    ("CC[C@@H](N)c1ccc(F)c(C(=O)c2ccccc2)c1F [Example 43]", "> 6.00"),
    ("C[C@@H](CC(N)=O)N[C@@H](c1ccc(Cl)c(C(=O)c2ccccc2)c1F)C1CC1 [Example 103]", "> 6.00"),
    ("CC[C@@H](N)c1ccc(Cl)c(C(=O)c2cccnc2)c1F [Example 2]", "5.30 to 6.00"),
    ("CC[C@@H](NC)c1ccc(Cl)c(C(=O)c2cccnc2)c1F [Example 289]", "5.30 to 6.00"),
]

// data source = patent US9145354B2
